The values you see were collected from ChEMBL document CHEMBL5360619.

test.system: Cytochrome P450 3A4 (Homo sapiens, UniProt P08684)
Sequence (P08684 whole entry): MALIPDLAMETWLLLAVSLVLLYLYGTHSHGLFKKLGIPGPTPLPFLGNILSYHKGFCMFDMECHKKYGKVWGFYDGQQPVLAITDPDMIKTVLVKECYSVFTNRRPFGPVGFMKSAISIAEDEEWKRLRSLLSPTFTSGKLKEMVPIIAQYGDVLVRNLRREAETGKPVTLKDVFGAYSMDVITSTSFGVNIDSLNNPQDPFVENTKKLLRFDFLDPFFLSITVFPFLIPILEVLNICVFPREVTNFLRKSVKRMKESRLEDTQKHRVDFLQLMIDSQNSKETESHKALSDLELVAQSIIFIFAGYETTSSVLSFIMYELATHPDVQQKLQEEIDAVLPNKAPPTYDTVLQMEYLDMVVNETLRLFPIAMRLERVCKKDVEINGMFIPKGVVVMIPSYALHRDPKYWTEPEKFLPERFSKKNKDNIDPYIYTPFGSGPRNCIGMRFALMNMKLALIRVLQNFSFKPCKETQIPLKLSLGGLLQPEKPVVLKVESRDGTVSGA
test.name: Inhibition of CYP3A4 in human liver microsomes using midazolam as substrate incubated for 10 mins in presence of NADPH by LC-MS/MS analysis
Assay type: ADME, Microsome
pIC50: −log10 of the molar value.
test.readout: pIC50

>>> result("CC(C)(C)c1ccc(-n2cc(-c3cc(=O)n4c(c3C3CC3)SCC4C(=O)O)nn2)cc1 (racemic)")
"< 4.00"

// below: pIC50 requested for another molecule
Challenge: Indicate the recorded pIC50 value for this molecule: CC(C)(C)c1ccc(-c2nnc(SCc3cc(=O)n4c(c3C3CC3)SCC4C(=O)O)o2)cc1 (racemic)
Response given: < 4.00
